# Test system: TTR on-target site
# measurement-protocol: Off-target validation in human primary hepatocytes: editing at the on-target site
# Assay type: cell-based
# experimental-context: treated vs control, human primary hepatocytes
assay-endpoint: on-target site editing efficiency (in words)

[
  {
    "molecule": "GA457: Human TTR guide RNA, spacer GCCAUCCUGCCAAGAAUGAG, gRNA SEQ ID NO: 11 (nucleic acid, chemistry not given here) guide: GCCATCCTGCCAAGAATGAGGTTTTAGAGCTAGAAATAGCAAGTTAAAATAAGGCTAGTCCGTTATCAACTTGAAAAAGTGGCACCGAGTCGGTGCTTTT",
    "observed-result": "high editing efficiency"
  },
  {
    "molecule": "GA461: Human/Cyno TTR guide RNA, spacer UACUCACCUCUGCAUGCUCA, gRNA SEQ ID NO: 15 (nucleic acid, chemistry not given here) guide: TACTCACCTCTGCATGCTCAGTTTTAGAGCTAGAAATAGCAAGTTAAAATAAGGCTAGTCCGTTATCAACTTGAAAAAGTGGCACCGAGTCGGTGCTTTT",
    "observed-result": "high editing efficiency"
  },
  {
    "molecule": "GA459: Human TTR guide RNA, spacer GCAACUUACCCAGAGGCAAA, gRNA SEQ ID NO: 13 (nucleic acid, chemistry not given here) guide: GCAACTTACCCAGAGGCAAAGTTTTAGAGCTAGAAATAGCAAGTTAAAATAAGGCTAGTCCGTTATCAACTTGAAAAAGTGGCACCGAGTCGGTGCTTTT",
    "observed-result": "high editing efficiency"
  },
  {
    "molecule": "GA460: Human/Cyno TTR guide RNA, spacer UAUAGGAAAACCAGUGAGUC, gRNA SEQ ID NO: 14 (nucleic acid, chemistry not given here) guide: TATAGGAAAACCAGTGAGTCGTTTTAGAGCTAGAAATAGCAAGTTAAAATAAGGCTAGTCCGTTATCAACTTGAAAAAGTGGCACCGAGTCGGTGCTTTT",
    "observed-result": "high editing efficiency"
  }
]
